Cited source for all entries: the METLIN SMRT retention time set (Domingo-Almenara et al. 2019)

Assay text: gradient 5% acetonitrile 3 min, to 50% in 2 min, to 85% in 15 min, held 3 min, 100 µL/min
Run conditions: column: Zorbax Extend-C18 2.1 x 50 mm; eluents: water / acetonitrile, 0.1% formic acid
Quantity name: RP-LC retention time (s)

Use these answered entries as a reference point.
Nc1nc(SCC(=O)c2ccc(-c3ccccc3)cc2)n[nH]1    677
COc1ccc(OC)c(S(=O)(=O)Nc2ccc3c(c2)CCC(=O)N3C)c1    675
Cc1cccc(OCC(=O)N(Cc2ccc(N(C)C)cc2)C2CCS(=O)(=O)C2)c1C (stereo not given)    798

(I) CCCN1C(=O)COc2ccc(-c3noc(/C=C/c4ccc(OC)cc4)n3)cc21
(II) Cc1ncsc1CN1CCC(Cc2ncc(C)n2Cc2ccccc2)C1 (stereo not given)
Select one: I or II . Criterion: greater recorded RP-LC retention time. Answer by stating the label of the chosen item. I
